Where do these numbers come from? They come from ChEMBL document CHEMBL1136016.

target: UniProt P0DMS8; assay: biochemical
Description: Displacement of [3H]MRE3008-F20 from human Adenosine A3 receptor expressed in HEK cells; range 0.70-0.92
Reported metric: Ki (nM)
Please give a number only; it is taken to be in nM.

Answer briefly: Ki recorded on UniProt P0DMS8 for CCCCn1cc2c(nc(NC(=O)Nc3ccc(F)cc3)n3nc(-c4ccco4)nc23)n1 0.8

---

biological target: Adenosine receptor A3 (Homo sapiens, UniProt P0DMS8); assay: biochemical
Sequence (P0DMS8 whole entry): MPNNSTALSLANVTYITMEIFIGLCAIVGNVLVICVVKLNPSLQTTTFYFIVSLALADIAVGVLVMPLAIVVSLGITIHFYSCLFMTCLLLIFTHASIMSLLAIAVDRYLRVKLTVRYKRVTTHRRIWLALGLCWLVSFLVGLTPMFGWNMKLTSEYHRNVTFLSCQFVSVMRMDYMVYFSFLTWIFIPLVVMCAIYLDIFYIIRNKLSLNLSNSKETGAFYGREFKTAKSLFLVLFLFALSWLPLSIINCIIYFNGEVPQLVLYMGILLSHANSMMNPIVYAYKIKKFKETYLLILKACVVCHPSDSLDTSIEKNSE
Description: Displacement of [3H]MRE3008-F20 binding at human Adenosine A3 receptor expressed in HEK cells; range 0.74-1.67
Reported metric: pKi
pKi is a log-scale quantity: -log10 of the concentration expressed in molar.

Specify reported pKi for the compound shown: CCCCn1cc2c(nc(NC(=O)Cc3ccccc3)n3nc(-c4ccco4)nc23)n1 8.95

---

Target: Adenosine receptor A1 (Homo sapiens)
Sequence (P30542 whole entry): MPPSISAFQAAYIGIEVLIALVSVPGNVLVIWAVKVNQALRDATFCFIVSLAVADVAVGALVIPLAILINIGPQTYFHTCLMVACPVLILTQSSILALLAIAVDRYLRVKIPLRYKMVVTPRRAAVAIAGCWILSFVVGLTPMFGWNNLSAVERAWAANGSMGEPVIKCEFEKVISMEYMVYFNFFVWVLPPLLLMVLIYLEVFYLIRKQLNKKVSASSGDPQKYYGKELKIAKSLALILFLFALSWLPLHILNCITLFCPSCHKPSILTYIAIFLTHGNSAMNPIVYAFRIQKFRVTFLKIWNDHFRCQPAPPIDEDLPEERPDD
Assay: Displacement of [3H]DPCPX from human Adenosine A1 receptor expressed in CHO cells
Assay type: cell-based
Reported metric: Ki (nM)
Please give a number only; it is taken to be in nM.

Specify reported Ki for the molecule shown: Cn1cc2c(nc(NC(=O)Nc3ccc([N+](=O)[O-])cc3)n3nc(-c4ccco4)nc23)n1 1110

Specify reported Ki for the molecule shown: CCCCn1cc2c(nc(NC(=O)Nc3ccc([N+](=O)[O-])cc3)n3nc(-c4ccco4)nc23)n1 584

Specify reported Ki for the molecule shown: CCn1cc2c(nc(NC(=O)Cc3ccccc3)n3nc(-c4ccco4)nc23)n1 714

Specify reported Ki for the molecule shown: CCCn1cc2c(nc(NC(=O)Nc3ccc([N+](=O)[O-])cc3)n3nc(-c4ccco4)nc23)n1 1210

Specify reported Ki for the molecule shown: Cn1cc2c(nc(NC(=O)Cc3ccccc3)n3nc(-c4ccco4)nc23)n1 702

Specify reported Ki for the molecule shown: CCn1cc2c(nc(NC(=O)Nc3ccc([N+](=O)[O-])cc3)n3nc(-c4ccco4)nc23)n1 1130

---

biological target: Adenosine receptor A3 (Homo sapiens, UniProt P0DMS8); assay: Displacement of [3H]MRE3008-F20 from human Adenosine A3 receptor expressed in HEK cells; range 0.53-0.68; type: cell-based, HEK293
Reported metric: pKi
pKi is a log-scale quantity: -log10 of the concentration expressed in molar.

Specify reported pKi for the compound shown: CCCCn1cc2c(nc(NC(=O)Nc3cccc(OC)c3)n3nc(-c4ccco4)nc23)n1 9.22

---

target: Adenosine receptor A1 (Homo sapiens, UniProt P30542); assay: Displacement of [3H]DPCPX from human Adenosine A1 receptor expressed in CHO cells; range […]; format: cell-based
Reported metric: pKi
pKi is a log-scale quantity: -log10 of the concentration expressed in molar.

Specify reported pKi for the compound shown: CCn1cc2c(nc(NC(=O)Nc3ccccc3Cl)n3nc(-c4ccco4)nc23)n1 6.46
